These entries and their values trace back to ChEMBL document CHEMBL3433997.

Target: Glucose transporter (Leishmania mexicana) (UniProt O61059)
Test: ST_JUDE_LEISH: Cytotoxicity at 2uM final concentration against transgenic Leishmania Mexicana promastigotes LmGT2 that are glucose transport deficient and complemented with the L. Mexicana glucose transporter 2. Activity is measured by DNA content using SYBR green in vitro
Type: functional
Criterion: inhibition meeting or surpassing 0.9%. Met: Criterion met. Not met: Criterion not met.

mol.smiles	category.label
N#Cc1cc(N(CCCOc2cccc(OC(F)(F)F)c2)Cc2ccccc2C(F)(F)F)ccc1C(F)(F)F	Criterion met

Would you say N=C(N)NC(=O)Nc1cc(Cl)c(Cl)c(Br)c1 shows inhibition at minimum 0.9%?
Criterion met

// next record N=C(N)Nc1cccc(NC(=O)Nc2cccc(NC(=N)N)c2)c1
Criterion met

// next record CN1CCN(c2ccc(-c3cc(-c4cc(F)c(F)c(F)c4)cnc3N)cc2)CC1
Criterion not met

// next record Fc1ccc2[nH]c(-c3cccc(-c4cccc(CN5CCN(c6ccncc6)CC5)c4)c3)nc2c1
Criterion not met
